The measured values listed here are drawn from patent US20240109960A1.

Target: T1, mouse IL-9 (mouse, UniProt P15247 19-144)
T1 construct: Recombinant mouse IL-9 (R&D Systems) in SPR and BLI; baculovirus supernatant in the bioassay; also called mIL-9; mIL9
T1 sequence: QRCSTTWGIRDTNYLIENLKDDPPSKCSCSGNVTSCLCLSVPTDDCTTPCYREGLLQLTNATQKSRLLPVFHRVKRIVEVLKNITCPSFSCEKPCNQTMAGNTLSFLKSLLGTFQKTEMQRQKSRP
Test: SPR (Biacore 3000), IL-9 immobilised on CM-5 chip, Fab periplasmic extract injected

# Binder, binding result
rows = [
    ("Fab 6C4 (Fab, V domains shown, Llama-derived Fab (VH-CH1 and VL-CL) from E. coli periplasmic extract; also called 9MP6C4) VH: QVQLVESGGGLVQPGGSLRLSCAASGFTFDDYAMSWVRQAPGKGLEWVSAISWNGGSTYHAESMKGRFTISRDNAKNTLYLQMNSLKSEDTAVYYCAKNLYGSSWYEYDYWGQGTQVTVSS VL: LSYELTQPSAVSTSLGQTARVTCQGDILESYGASWYQQKPGQAPVLVIYGDDSRPSGIPERFSGSSSGGTATLTISGAQAEDEADYYCLSADSSDYNAVFGGGTHLTVL", "no binding"),
    ("Fab 7D6 (Fab, V domains shown, it is treated as the same molecule; also called 9MP7D6) VH: QLQLVESGPGLVKPSQTLSLTCTVSGGSITTGYYAWSWIRQPPGKGLEWMGFIARDGSTSYSPSLKSRTSISRDTSKNQFSLQLSSVTPEDTAVYYCARAGEGRSWYPGYYYGMDYWGKGTLVTVSS VL: AQAVVTQEPSLSVSPGGTVTLTCGLSSGSVTSSNYPGWYQQTPGQAPRVLIYNTNSRHSGVPSRYSGFISGNKAALTITGAEPEDEADYYCHLHKGSTGVFGGGTHLTVL", "no binding"),
    ("Fab 6E2 (Fab, V domains shown, it is treated as the same molecule; also called 9MP6E2) VH: QVQLVESGGGLVQPGGSLRLSCAASGFTFSSSAMGWVRQAPGKGLEWVSTIVNSITTTYYADSVKGRFTISTDNAKNTLYLQIDSLKSEDTAVYYCGSLAGPYYDYWGQGTQVTVSS VL: LSSALTQPSTVSVSLGQTARITCQGGSLGSYDAHWYQQKPGQAPVLVIHDNNSRPSGIPERFTGSRSGETATLTISGAQTEDEADYYCQSYDSTSDALVFGGGTQLTVL", "no binding"),
]
